# credit: patent US8461328B2

- target.of.assay: JAK3 (Homo sapiens, UniProt P52333)
- Construct: made in house; host or cells: SF9 insect cells (baculovirus)
- Sequence (P52333 783-1124): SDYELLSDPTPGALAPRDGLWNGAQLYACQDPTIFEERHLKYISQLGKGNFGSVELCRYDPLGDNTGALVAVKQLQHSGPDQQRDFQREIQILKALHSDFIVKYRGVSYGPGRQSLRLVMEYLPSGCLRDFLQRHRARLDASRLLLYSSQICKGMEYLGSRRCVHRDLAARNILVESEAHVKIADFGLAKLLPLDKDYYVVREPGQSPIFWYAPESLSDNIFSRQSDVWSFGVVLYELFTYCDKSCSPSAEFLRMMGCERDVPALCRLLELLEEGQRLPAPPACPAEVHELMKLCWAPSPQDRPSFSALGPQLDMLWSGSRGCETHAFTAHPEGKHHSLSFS
- test.method.notes: JAK3 inhibition (Table 4)
- Type: biochemical
- condition.label: read-out: JAK3 Ki
pKi: −log10 of the molar value.
measure.name: pKi

C[C@@H](O)c1nc2cnc3[nH]ccc3c2n1C1CCC(NCC(F)F)CC1 (stereo partly drawn) [Example 1002]: 6.96
N#CCCN1CCC(n2c(C3CCOCC3)nc3cnc4[nH]ccc4c32)CC1 [Example 385]: 7.81
C[C@@H](O)c1nc2cnc3[nH]ccc3c2n1[C@@H]1CCN(S(C)(=O)=O)C1 [Example 686]: 7.82

a: CNc1nc2cnc3[nH]ccc3c2n1C1CCCOC1 (stereo not drawn) [Example 773]
b: Cc1nc2cnc3[nH]ccc3c2n1C1(C)CCN(Cc2ccnc(C#N)c2)CC1 [Example 758]
c: Fc1cccc(CN2CCC[C@@H](n3cnc4cnc5[nH]ccc5c43)C2)c1 [Example 47]
## Input # desc sort on pKi across 3 compounds Note for the reader: the ranking is given by listing the labels in the order requested.
## Output c, a, b
(c: 7.28, a: 6.90, b: 6.22)

====

- target.of.assay: JAK2 (Homo sapiens)
- Construct: made in house; host or cells: SF9 insect cells (baculovirus)
- Sequence (O60674 812-1132): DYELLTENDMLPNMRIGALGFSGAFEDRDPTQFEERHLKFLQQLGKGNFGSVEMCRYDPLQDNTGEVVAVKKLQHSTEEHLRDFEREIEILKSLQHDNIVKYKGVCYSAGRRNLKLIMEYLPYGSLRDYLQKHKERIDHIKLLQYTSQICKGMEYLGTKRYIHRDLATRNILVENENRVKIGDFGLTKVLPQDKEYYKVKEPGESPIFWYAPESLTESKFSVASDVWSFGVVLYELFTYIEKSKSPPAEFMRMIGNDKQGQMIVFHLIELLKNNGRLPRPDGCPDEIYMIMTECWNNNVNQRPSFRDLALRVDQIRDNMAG
- test.method.notes: JAK2 inhibition (Table 4)
- Assay type: biochemical
- condition.label: read-out: JAK2 Ki
measure.name: Ki (nM)

Example entries begin here.
CC(C)OCc1nc2cnc3[nH]ccc3c2n1C1CCN(CCC#N)CC1: 171
Cc1nc2cnc3[nH]ccc3c2n1C1CCC(NCCC#N)C1 (racemic): 5.91
CC1(n2nnc3cnc4[nH]ccc4c32)CCN(S(=O)(=O)c2cccnc2)CC1: 105
CC(O)c1nc2cnc3[nH]ccc3c2n1C1CCCN(C(=O)C2CC2(F)F)C1 (stereo not shown): 740
CC(=O)NC1CCCC(n2cnc3cnc4[nH]ccc4c32)C1 (single isomer, unassigned) [Example 479]: 123

I: Cc1nc2cnc3[nH]ccc3c2n1C1(C)CCN(S(=O)(=O)c2cccnc2)CC1
II: CC(C)(C)OC(=O)N1CCC[C@@H]1CN[C@H]1CC[C@H](n2cnc3cnc4[nH]ccc4c32)CC1
## Input Which entry has a larger number for Ki, I or II ? State the label of the item chosen.
## Output II
(II: 190 nM, I: 97.7 nM)

====

- target.of.assay: JAK1 (Homo sapiens, UniProt P23458)
- Construct: made in house; host or cells: SF9 insect cells (baculovirus)
- Sequence (P23458 852-1154): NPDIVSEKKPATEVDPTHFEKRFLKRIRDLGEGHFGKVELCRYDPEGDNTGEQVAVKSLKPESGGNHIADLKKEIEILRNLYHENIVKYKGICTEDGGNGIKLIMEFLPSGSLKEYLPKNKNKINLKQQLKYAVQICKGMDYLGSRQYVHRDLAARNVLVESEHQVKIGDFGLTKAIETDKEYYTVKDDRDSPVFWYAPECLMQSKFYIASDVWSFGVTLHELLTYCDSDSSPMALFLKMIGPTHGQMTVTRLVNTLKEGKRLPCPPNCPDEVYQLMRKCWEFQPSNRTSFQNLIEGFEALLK
- test.method.notes: JAK1 inhibition (Table 4)
- Type: biochemical
- condition.label: read-out: JAK1 Ki
pKi: −log10 of the molar value.
measure.name: pKi

Examples from the recorded data:
C[C@@H](O)c1nc2cnc3[nH]ccc3c2n1[C@@H]1CCCN(C(=O)C2CCOCC2)C1: 6.86
N#Cc1cccc(CN2CCC(n3cnc4cnc5[nH]ccc5c43)CC2)n1: 8.48
CC(C)(C)[S+]([O-])NCc1nc2cnc3[nH]ccc3c2n1C1CCCCC1 (centres unmarked): 7.21
CC(O)c1nc2cnc3[nH]ccc3c2n1C1CCN(S(C)(=O)=O)CC1 (racemic): 6.97
C[C@@H](O)c1nc2cnc3[nH]ccc3c2n1C1CCC(n2ccnn2)CC1 (some centres unmarked): 8.29

P: CC(C)NC(=O)[C@H]1CC[C@H](n2cnc3cnc4[nH]ccc4c32)CC1
Q: CC(C)NC(=O)C(C)c1nc2cnc3[nH]ccc3c2n1C1CCN(CCC#N)CC1 (racemic)
R: CC(C)(C)OC(=O)N1CC(c2nc3cnc4[nH]ccc4c3n2C2CCN(Cc3ccccc3)CC2)C1
S: Cc1nc2cnc3[nH]ccc3c2n1C1CCOC(C)(C)C1 (centres unmarked)
T: COCCC(=O)NCCc1nc2cnc3[nH]ccc3c2n1C1CCN(CCC#N)CC1
## Input Ordering criterion: pKi; begin with the maximum. Provide the ranking by listing each label in its place in the requested order.
## Output T, R, P, S, Q

a: CCOC(=O)N1CCC[C@@H](n2c([C@@H](C)O)nc3cnc4[nH]ccc4c32)C1
b: N#CCCN1CCC(n2c(CC(=O)N3CC(F)(F)C3)nc3cnc4[nH]ccc4c32)CC1
c: OC1CCCC(n2cnc3cnc4[nH]ccc4c32)C1 (single isomer, unassigned) [Example 559]
d: O=C(O)C1CC1C(O)c1nc2cnc3[nH]ccc3c2n1C1CCCCC1 (racemic)
## Input # ascending order, key=pKi Output spec: labels arranged per the requested ranking.
## Output a, b, c, d
(a: 6.79, b: 7.46, c: 7.99, d: 8.29)

A: CCCS(=O)(=O)N1CCC(n2c(CC(N)=O)nc3cnc4[nH]ccc4c32)CC1
B: Cc1noc(C)c1S(=O)(=O)N1CCC(n2cnc3cnc4[nH]ccc4c32)CC1
## Input Decide: A or B , by lowest recorded pKi. // return label of chosen record
## Output A
(A: 6.88, B: 7.79)
